So I've got a bunch of compounds here, and I need their inhibition at 20 µg/mL values.
# Target of assay: ACAT (AcylCoA-Cholesterolacyltransferase) (Oryctolagus cuniculus)
# Construct: from tissue; host or cells: rabbit small intestine epithelium, microsome fraction
# Sequence (G1SFD9 1-524): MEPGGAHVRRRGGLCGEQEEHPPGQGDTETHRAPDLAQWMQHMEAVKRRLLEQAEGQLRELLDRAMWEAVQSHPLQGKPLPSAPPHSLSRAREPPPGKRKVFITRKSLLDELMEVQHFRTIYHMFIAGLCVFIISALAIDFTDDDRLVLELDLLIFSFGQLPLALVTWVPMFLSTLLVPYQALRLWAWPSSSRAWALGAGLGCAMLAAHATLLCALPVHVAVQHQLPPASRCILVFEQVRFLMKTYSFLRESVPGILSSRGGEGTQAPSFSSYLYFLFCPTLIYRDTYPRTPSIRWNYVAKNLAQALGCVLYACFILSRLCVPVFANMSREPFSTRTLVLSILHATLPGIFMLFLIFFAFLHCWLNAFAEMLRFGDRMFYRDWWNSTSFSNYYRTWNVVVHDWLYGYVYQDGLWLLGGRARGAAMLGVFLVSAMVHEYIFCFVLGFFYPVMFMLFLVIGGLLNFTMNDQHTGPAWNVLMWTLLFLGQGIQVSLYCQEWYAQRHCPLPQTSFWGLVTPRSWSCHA
# Protocol text: ACAT inhibitory activity in test tube (method of Heider et al., [1-14C]oleylCoA, small intestine epithelium microsome fraction)
# Type: biochemical, rabbit
# Measurement setup: read-out: Inhibitory Ratio (%)
Quick reminder: number only, in %, skip the unit.

Fill in reported inhibition at 20 µg/mL for this entry: CCCCCCCC/C=C\CCCCCCCC(=O)OC(CO)CO
32

Retrieve inhibition at 20 µg/mL measured for CC/C=C\C/C=C\C/C=C\CCCCCCCC(=O)OCC(O)CO (stereo not shown) and print it.
25

Fill in inhibition at 20 µg/mL for record CCCCCCCCCCCCCCCCCC(=O)OCC(O)CO (stereo not shown)
15

State, in one line, measured inhibition at 20 µg/mL of CCCCCCCC/C=C\CCCCCCCC(=O)OCC(O)CO (stereo not shown)
30
